- STUDY SYSTEM: Neu5Ac(a2-3)Gal
- ASSAY NOTES: glycan array binding signal (z-score within array); higher = stronger binding
- CONDITION SET: glycan notation: IUPAC condensed, linker removed
About 410 targets per protein were measured; listed, in parts, are those with the strongest signals and a random draw of the rest.
RESULT TYPE: glycan array binding signal (z-score)

{"columns": ["BINDER", "glycan array binding signal (z-score)"],
 "data": [
  ["Surfactant Protein D (Human); Neck + Carbohydrate Recognition Domain (NCRD) (Homo sapiens) (protein) MLLFLLSALVLLTQPLGYLEAEMKTYSHRTMPSACTLVMCSSVESGLPGRDRDGREGPRGEKGDPGLPGAAGQAGMPGQAGPVGPKGDNGSVGEPGPKGDTGPSGPPGPPGVPGPAGREGALGKQGNIGPQGKPGPKGEAGPKGEVGAPGMQGSAGARGLAGPKGERGVPGERGVPGNTGAAGSAGAMGPQGSPGARGPPGLKGDKGIPGDKGAKGESGLPDVASLRQQVEALQGQVQHLQAAFSQYKKVELFPNGQSVGEKIFKTAQFVKPFTEAQLLCTQAGGQLASPRSAAENAALQQLVVAKNEAAFLSMTDSKTEGKFTYPTGESLVYSNWAPGEPNDDGGSEDCVEIFTNGKWNDRACGEKRLVVCEF", -0.243],
  ["Gal 4 (Canis lupus) (protein) MAYVPAPGYQPTYNPTLPYNKPIPGGLSVGMSVYIQGITSEHMRRFCVNFVAGAHPGSDIAFHFNPRFDGWDKVVFNSHLGGKWGSEEKKRSMPFRKGTHFELVFMVLAEHYKVVVNGNPFYEFGHRLPLQLVTHLQVEGDVELQSINFIGGTQPLGQGPGHTQQQPSSLPTMEGPPVFNPPVPFRKRLQGGLTVRRTVIIKGFVPFTSKSFVINFMVESSGDLALHINPRLTEGLVVRNSCLNGSWGSEDRKLSYNPFIPGQFFDLSIRCGMDRFKVYANGQHLFDFSHRLLALQNVDMLEINGDVTLSYIQV", -0.152]
]}

// next entry
May I ask what glycan array binding signal (z-score) has been recorded for CTLY 1 (Homo sapiens), Q6ZS10 (protein) AITCPEGWLPFEGKCYYFSPSTKSWDEARMFCQENYSHLVIINSFAEHNFVAKAHGSPRVYWLGLNDRAQEGDWRWLDGSPVTLSFWEPEEPNNIHDEDCATMNKGGTWNDLSCYKTTYWICERKGLNDIFEAQKIEWHE ?
-0.238
